system: SF-539; experiment: NCI tumour cell line growth inhibition, 48 h
Active and inactive are the calls of the source. Rule as the data show it: active = GI50 up to about 1.1 µM and inactive = higher. Square brackets hold non-standard residues; d marks the D form. Peptide text beside a SMILES is read from it. Ac5c = NC1(C(=O)O)CCCC1
MEASUREMENT_LABEL: GI50

>>> obs_value("CC1SC2(CCCCC2)N(NC(=O)CSc2nc3ccc(Cl)cc3c(=O)n2-c2ccccc2)C1=O (centres undefined)")
"17.3 µM (inactive)"
>>> obs_value("CC(C)/C(Cl)=N/OC(=O)Nc1ccc(OC(F)(F)F)cc1")
"17.3 µM (inactive)"
>>> obs_value("O=[N+]([O-])C(=C/c1cccc2ccccc12)/C(=C\\c1cccc2ccccc12)[N+](=O)[O-]")
"2.21 µM (inactive)"
>>> obs_value("NCC(=O)NC1(C(=O)O)CCCC1 (H-Gly-[Ac5c]-OH)")
"> 100 µM (inactive)"
>>> obs_value("CCOC(=O)Cc1cc(=O)oc2cc(O)ccc12")
"> 100 µM (inactive)"
>>> obs_value("Cc1cc(C)nc(NS(=O)(=O)c2ccc(Nc3c4ccc(Cl)cc4nc4c(C(=O)Nc5ccc(S(=O)(=O)N=C(N)N)cc5)cccc34)cc2)n1")
"> 100 µM (inactive)"
>>> obs_value("CC(C)(c1ccccc1)c1ccc(Oc2ccc(C#N)c(C#N)c2)cc1")
"> 10 µM (inactive)"
>>> obs_value("COc1cc(C2c3cc4c(cc3[C@@H](Nc3ccc(F)cc3)C3COC(=O)[C@H]23)OCO4)cc(OC)c1O (some centres undefined)")
"1.86 µM (inactive)"
>>> obs_value("O=C(Nc1cccc(O)c1)C(=O)C1C(=O)NC(=S)NC1=O")
"> 100 µM (inactive)"

====

test system: U-251; assay: NCI tumour cell line growth inhibition, 48 h
The source made the active and inactive calls. Rule as the data show it: active = GI50 up to about 1.1 µM and inactive = higher.
MEASUREMENT_LABEL: GI50

>>> obs_value("O=c1c2cccnc2[nH]c2ccc3cn[nH]c3c12")
"> 10 µM (inactive)"
>>> obs_value("COC(=O)c1c[nH]cc1CCCCc1c[nH]cc1C(=O)OC")
"> 100 µM (inactive)"
>>> obs_value("O=C1C2C3CCC(C2C(=O)N1CO)C1C2C(=O)N(CO)C(=O)C2C31 (stereo unspecified)")
"> 40.3 µM (inactive)"
>>> obs_value("O=C1C[C@@]23CCC4(CC2CCC[C@H]3O1)OCCO4 (stereo partly specified)")
"> 100 µM (inactive)"
>>> obs_value("CCO/C(CCn1[nH]c(=O)c(Cl)c(Cl)c1=O)=N\\NC(=O)C(=O)NN")
"> 100 µM (inactive)"
>>> obs_value("CCCCCCCCCCCCCCCC(=O)OCC1OC(OC)C(NC(=O)N(CCCl)N=O)C(O)C1O (stereo unspecified)")
"8.38 µM (inactive)"
>>> obs_value("CC(C)(C)CC(C)(C)c1cc(O)c(O)c(CN2CCCCC2)c1")
"11.9 µM (inactive)"
>>> obs_value("CC(C)/C(Cl)=N/OC(=O)Nc1ccc(OC(F)(F)F)cc1")
"17.3 µM (inactive)"
>>> obs_value("CCCCCCCCOCC(O)COC(=O)CCCCCCC (stereo unspecified)")
"> 100 µM (inactive)"
>>> obs_value("C=CCSc1nc2ccccc2c(=O)n1Cc1ccco1")
"> 100 µM (inactive)"
>>> obs_value("CCOC(=O)C1=C(C(C)=O)CSC(c2ccccc2)=N1")
"> 100 µM (inactive)"
